species: Rattus norvegicus; experiment: DrugMatrix - Regimen: Daily Repeat; format: toxicity, organism-based, Sprague-Dawley; design: regimen Daily Repeat, gender Male, age 6-8 weeks; settings: in vivo, ip, 40 mg/kg, 120 h, tissue Blood, route intraperitoneal, dose level High, time 5 day, vehicle 100 % SALINE
measurementType: ABSOLUTE BASOPHIL (cells/µL)
Give bare numbers, in cells/µL.

Can you look up the measured ABSOLUTE BASOPHIL of "CCN[C@@H]1C[C@H](N)[C@@H](O[C@H]2OC(CN)=CC[C@H]2N)[C@H](O)[C@H]1O[C@H]1OC[C@](C)(O)[C@H](NC)[C@H]1O" for me?
100

###

What LIPASE was measured for each of the following?
organism: Rattus norvegicus; assay: DrugMatrix - Regimen: Daily Repeat; format: toxicity, organism-based, Sprague-Dawley; set-up: regimen Daily Repeat, gender Male, age 6-8 weeks; details: in vivo, po, 0 mg/kg, 120 h, tissue Plasma, route oral GAVAGE, dose level Control, time 5 day, vehicle .5 % CMC
Answers are plain numbers, in u/L.

Completed entries (count: 6):
| compound | unitText | measuredResult |
| --- | --- | --- |
| OC(CCN1CCCCC1)(c1ccccc1)C1CCCCC1 (stereo not drawn) | u/L | 8.83 |
| C[C@]1(Cn2ccnn2)[C@H](C(=O)O)N2C(=O)C[C@H]2S1(=O)=O | u/L | 8.67 |
| CO[C@H]1/C=C/O[C@@]2(C)Oc3c(C)c(O)c4c(c3C2=O)C2=NC3(CCN(CC(C)C)CC3)NC2=C(NC(=O)/C(C)=C\C=C\[C@H](C)[C@H](O)[C@@H](C)[C@@H](O)[C@@H](C)[C@H](OC(C)=O)[C@@H]1C)C4=O | u/L | 10.33 |
| O=[N+]([O-])c1ccccc1 | u/L | 11.17 |
| CN1C(=O)COc2c(C(=O)NC3CN4CCC3CC4)cc(Cl)cc21 (stereo not drawn) | u/L | 10 |
| C[C@](O)(CS(=O)(=O)c1ccc(F)cc1)C(=O)Nc1ccc(C#N)c(C(F)(F)F)c1 [(R)-BICALUTAMIDE] | u/L | 9 |

For every item in the list below, what is its measured LIPASE?
1. CC(=O)CC(c1ccccc1)c1c(O)c2ccccc2oc1=O (stereo not drawn)
2. C#C[C@]1(O)CC[C@H]2[C@@H]3CCc4cc(OC)ccc4[C@H]3CC[C@@]21C

[9.5, 10.33]

###

Record form. Attribute: GLUCOSE. Fill in for each entry.
species on record: Rattus norvegicus; experiment: DrugMatrix - Regimen: Daily Repeat; type: toxicity, organism-based, Sprague-Dawley; design: regimen Daily Repeat, gender Male, age 6-8 weeks; details: in vivo, po, 0 mg/kg, 120 h, tissue Plasma, route oral GAVAGE, dose level Control, time 5 day, vehicle .5 % CMC
Kindly format the answer as number then unit.

| molecule | measuredResult |
| --- | --- |
| CN1C(=O)COc2c(C(=O)NC3CN4CCC3CC4)cc(Cl)cc21 (stereo unspecified) | 149.83 mg/dL |
| CC[C@@H](CO)NCCN[C@@H](CC)CO | 167.67 mg/dL |
| CN1CCC(=C2c3ccccc3C=Cc3ccccc32)CC1 | 165.17 mg/dL |
| N=C(N)NC(=O)c1nc(Cl)c(N)nc1N [AMILORIDE] | 167.67 mg/dL |

# per-item lookup of GLUCOSE; items listed below
1. CC(=O)CC(c1ccccc1)c1c(O)c2ccccc2oc1=O (stereo unspecified)
2. CO[C@H]1/C=C/O[C@@]2(C)Oc3c(C)c(O)c4c(c3C2=O)C2=NC3(CCN(CC(C)C)CC3)NC2=C(NC(=O)/C(C)=C\C=C\[C@H](C)[C@H](O)[C@@H](C)[C@@H](O)[C@@H](C)[C@H](OC(C)=O)[C@@H]1C)C4=O

161.67 mg/dL
141.83 mg/dL

# batch: return GLUCOSE for each of the 2 molecules below
1. OC(CCN1CCCCC1)(c1ccccc1)C1CCCCC1 (stereo unspecified)
2. Cc1onc(-c2ccccc2)c1-c1ccc(S(N)(=O)=O)cc1

1: 165.67 mg/dL; 2: 177.17 mg/dL

List reported GLUCOSE for each of these molecules:
1. C[C@](O)(CS(=O)(=O)c1ccc(F)cc1)C(=O)Nc1ccc(C#N)c(C(F)(F)F)c1 [(R)-BICALUTAMIDE]
2. C#C[C@]1(O)CC[C@H]2[C@@H]3CCc4cc(OC)ccc4[C@H]3CC[C@@]21C
3. C[C@]1(Cn2ccnn2)[C@H](C(=O)O)N2C(=O)C[C@H]2S1(=O)=O
4. CC(C)[C@H]1CC[C@H](C(=O)N[C@H](Cc2ccccc2)C(=O)O)CC1 [NATEGLINIDE]
5. O=[N+]([O-])c1ccccc1
6. O=C1CCC(N2C(=O)c3ccccc3C2=O)C(=O)N1 (stereo unspecified) [THALIDOMIDE]

["150.5 mg/dL", "141.83 mg/dL", "168.83 mg/dL", "158 mg/dL", "155 mg/dL", "196.83 mg/dL"]

Look up GLUCOSE for the entries below, preserving their order.
1. Clc1ccc2c(c1)C(N1CCNCC1)=Nc1ccccc1O2
2. CNC(=C[N+](=O)[O-])NCCSCc1ccc(CN(C)C)o1

1. 155.33 mg/dL
2. 141.83 mg/dL

Data provenance: ChEMBL document CHEMBL3885881
